protocol text: chemical genetic growth profiling, strain panel (AID 1159580);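 also: tested at 20 µM; growth read once vehicle control cultures reached saturation at 30 °C; 1 = growth at the plate median or of vehicle wells; lower values mean less growth of the strain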
assay context: S. cerevisiae deletion strains, growth OD, locus YLR102C, strain apc9, hits give low values
Hit rate of the full screen: of about 5,500 compounds, about 2,000 (36%) were called active. Another 18% or so got no clear call; they are omitted. Some of the results follow.
Answer each item with its documented normalized growth.
Answers are plain numbers.

[[record]]
compound = "C[C@]12C=CC(=O)C=C1CCC1C2[C@@H](O)C[C@@]2(C)C1CC[C@]2(O)C(=O)CO (stereo not given in full)"
reported = 0.98

[[record]]
compound = "NC(N)=NCCN1CCCCCCC1"
reported = 1.02

[[record]]
compound = "CCCCCCCCCCCCCC(=O)OC1C(C)C2(O)C(C=C(CO)CC3(O)C(=O)C(C)=CC32)C2C(C)(C)C12OC(C)=O (stereo not given)"
reported = 0.998

[[record]]
compound = "C[C@]12CCC3c4ccc(OC(=O)CCC(=O)O)cc4CCC3C1CCC2=O (stereo not given in full)"
reported = 1.01

[[record]]
compound = "NC(N)=NCCCCN=C(N)N"
reported = 0.993

[[record]]
compound = "CC12CCC3C(=CCc4cc(O)ccc43)C1CCC2=O (stereo not given)"
reported = 1.02


Hello, I would appreciate it if you could give normalized growth for each entry below.
1. CC(=O)Oc1ccc2c(c1)CCC1C2CC[C@]2(C)C(=O)CCC12 (stereo not given in full)
2. C[C@]12CCC3c4ccc(O)cc4CCC3C1CCC2=O (stereo not given in full)
3. O=C(O)C1CCCNC1 (stereo not given)
4. CC(C)/C(O)=C1/C(=O)O[C@@H](c2ccoc2)[C@]2(C)C(O)[C@@H](O)[C@@]34OC5(C)OC67CC(C)(C(O)[C@]6(O)[C@@H](O)[C@]3(O5)C12)[C@H](CC(=O)O)[C@]74C (stereo not given in full)

Reply:
1. 1.02
2. 1
3. 1.01
4. 0.998

* * *

protocol text: chemical genetic growth profiling, strain panel (AID 1159580);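 also: tested at 20 µM; growth read once vehicle control cultures reached saturation at 30 °C; 1 = growth at the plate median or of vehicle wells; lower values mean less growth of the strain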
assay context: S. cerevisiae deletion strains, growth OD, locus YEL037C, strain rad23, hits give low values
Screen size: about 5,500 compounds; about 2,000 (36%) were called active. Roughly 18% stayed inconclusive and do not appear here. The list shows a part of the results.
experimental readout: normalized growth
One number for each entry.

// worked examples, normalized growth included
[[record]]
compound = "C[C@@H]1CC[C@H]2C(C)(C)C3CC12CC[C@@]3(C)O (some centres undefined)"
experimental_readout = "normalized growth"
reported = 0.973

[[record]]
compound = "CN[C@@H]1C(OC2[C@H](O[C@H]3[C@H](O)[C@@H](O)[C@H](N=C(N)N)[C@@H](O)[C@@H]3N=C(N)N)OC(C)[C@]2(O)CO)OC(CO)C(O)C1O (some centres undefined)"
experimental_readout = "normalized growth"
reported = 1.01

[[record]]
compound = "CC(=O)O[C@]1(C)CC[C@@]23CC1C(C)(C)[C@@H]2CC[C@H]3C"
experimental_readout = "normalized growth"
reported = 0.975


Now for the compound whose normalized growth we want.
Ask: Look at this compound and give its reported normalized growth. CC(=O)OCC(=O)[C@@]1(O)CCC2C3CCC4=CC(=O)C=CC4(C)C3[C@@H](O)C[C@@]21C (some centres undefined)
Reply: 1
